Measured Dmax 18 h, listed per entry for reference.
# target: KRAS(G12D) (Homo sapiens, UniProt P01116, G12D)
# Construct: introduced immediately downstream of the initiating Methionine codon of the endogenous KRAS locus; host or cells: GP5d-HiBit-KRAS(G12D), a CRISPR knock-in at the endogenous locus
# Sequence (P01116 1-188 isoform P01116-2 G12D): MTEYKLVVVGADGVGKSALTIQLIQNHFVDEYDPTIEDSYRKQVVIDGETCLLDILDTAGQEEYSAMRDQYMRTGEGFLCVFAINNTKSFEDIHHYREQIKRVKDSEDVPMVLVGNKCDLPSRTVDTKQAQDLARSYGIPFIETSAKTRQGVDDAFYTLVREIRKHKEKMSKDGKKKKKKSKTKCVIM
# measurement-description: HiBit degradation assay in GP5d-HiBit-KRAS(G12D) cells (18 h; DC50, Dmax)
# Format: cell-based
Kindly provide the numeric value in % Ctrl only, without the unit symbol.

Example entries begin here.
INSERT INTO results (compound, observed_result) VALUES
  ('Cc1ncsc1-c1ccc(CNC(=O)[C@@H]2C[C@@H](O)CN2C(=O)C(c2cc(OCCOCCN3CCCN(c4nccc(-c5noc([C@@]6(C)CCCc7sc(N)c(C#N)c76)n5)n4)[C@@H](C)C3)no2)C(C)C)cc1 (stereo partly shown)', 80),
  ('Cc1ncsc1-c1ccc([C@@H](NC(=O)[C@@H]2C[C@@H](O)CN2C(=O)[C@H](C(C)C)n2cc(OCCCN3CCCN(c4nccc(-c5noc([C@@]6(C)CCCc7sc(N)c(C#N)c76)n5)n4)[C@@H](C)C3)nn2)[C@H](O)C(C)C)cc1 (single isomer, unassigned)', 93),
  ('Cc1ncsc1-c1ccc(CNC(=O)[C@@H]2C[C@@H](O)CN2C(=O)[C@H](c2cc(OCCCCN3CCCN(c4nccc(-c5noc([C@@]6(C)CCCc7sc(N)c(C#N)c76)n5)n4)[C@@H](C)C3)no2)C(C)C)cc1 (single isomer, unassigned)', 77);

Pending compound:
Briefly, Dmax 18 h measured for Cc1ncsc1-c1ccc(CNC(=O)[C@@H]2C[C@@H](O)CN2C(=O)C(C(C)C)n2cc(CCCCCN3CCCN(c4nccc(-c5noc([C@@]6(C)CCCc7sc(N)c(C#N)c76)n5)n4)[C@@H](C)C3)nn2)cc1 (stereo partly shown) : 91

###

# Tested on: SW620 cells
# measurement-description: SW620 cell proliferation assay (colorectal cancer, G12V), 5 days
# Format: cell-based
# assay-conditions: Homo sapiens, SW-620, 120 h
Threshold check on IC50: strictly below 30 nM is T; on or above 30 nM is F.

Examples with answers:
INSERT INTO measurements (molecule, category) VALUES
  ('Cc1ncsc1-c1ccc(CNC(=O)[C@@H]2C[C@@H](O)CN2C(=O)C(c2cc(OCCCCN3CCCN(c4nccc(-c5noc([C@@]6(C)CCCc7sc(N)c(C#N)c76)n5)n4)[C@@H](C)C3)no2)C(C)C)cc1 (some centres unmarked) [I-3]', 'T'),
  ('CC(C)C(C(=O)N1C[C@H](O)C[C@H]1C(=O)NCc1ccc(-n2ccnc2)cc1)c1cc(OCCCCN2CCCN(c3nccc(-c4noc([C@@]5(C)CCCc6sc(N)c(C#N)c65)n4)n3)[C@@H](C)C2)no1 (some centres unmarked) [I-19]', 'T'),
  ('CC(C)C(C(=O)N1C[C@H](O)C[C@H]1C(=O)NCc1ccc(Br)cc1)c1cc(OCCCCN2CCCN(c3nccc(-c4noc([C@@]5(C)CCCc6sc(N)c(C#N)c65)n4)n3)[C@@H](C)C2)no1 (some centres unmarked) [I-7]', 'F'),
  ('Cc1ncsc1-c1ccc(CNC(=O)[C@@H]2C[C@@H](O)CN2C(=O)C(c2cc(OCCCCN3CCCN(c4nccc(-c5cc([C@@]6(C)CCCc7sc(N)c(C#N)c76)sn5)n4)[C@@H](C)C3)no2)C(C)C)cc1 (some centres unmarked) [I-12]', 'F');

Consider the record given below.
Req: # strict comparison: is reported IC50 < 30 nM? input = Cc1ncsc1-c1ccc(CNC(=O)[C@@H]2C[C@@H](O)CN2C(=O)C(c2cc(OCCCN3CCCN(c4nccc(-c5noc([C@@]6(C)CCCc7sc(N)c(C#N)c76)n5)n4)[C@@H](C)C3)no2)C(C)C)cc1 (some centres unmarked) [I-1]
Resp: T

###

# target: KRAS(G12D) (Homo sapiens, UniProt P01116, G12D)
# Construct: introduced immediately downstream of the initiating Methionine codon of the endogenous KRAS locus; host or cells: GP5d-HiBit-KRAS(G12D), a CRISPR knock-in at the endogenous locus
# measurement-description: HiBit degradation assay in GP5d-HiBit-KRAS(G12D) cells (18 h; DC50, Dmax)
# Assay type: cell-based
// reported DC50 per item
The reply should be a number in nM, with the unit left off.

KRAS(G12D) (Homo sapiens, UniProt P01116, G12D) data for Cc1ncsc1-c1ccc(CNC(=O)[C@@H]2C[C@@H](O)CN2C(=O)[C@H](c2cc(OCCCN3CCCN(c4nccc(-c5noc([C@@]6(C)CCCc7sc(N)c(C#N)c76)n5)n4)[C@@H](C)C3)no2)C(C)C)cc1 (single isomer, unassigned) ; its DC50: 200

Considering Cc1ncsc1-c1ccc(CNC(=O)[C@@H]2C[C@@H](O)CN2C(=O)C(c2cc(OC/C=C/CN3CCCN(c4nccc(-c5noc([C@@]6(C)CCCc7sc(N)c(C#N)c76)n5)n4)[C@@H](C)C3)no2)C(C)C)cc1 (some centres unmarked) , its DC50 with KRAS(G12D) (Homo sapiens, UniProt P01116, G12D) was recorded as 9.8

###

Readings of DC50 for the listed compounds
# target: KRAS4B G13D (Homo sapiens, UniProt P01116, G13D)
# Construct: HiBit; expressed in transfected cells; host or cells: GP5d cells (ECACC 95090715), stably transduced with lentivirus, CMV promoter
# Sequence (P01116 1-188 isoform P01116-2 G13D): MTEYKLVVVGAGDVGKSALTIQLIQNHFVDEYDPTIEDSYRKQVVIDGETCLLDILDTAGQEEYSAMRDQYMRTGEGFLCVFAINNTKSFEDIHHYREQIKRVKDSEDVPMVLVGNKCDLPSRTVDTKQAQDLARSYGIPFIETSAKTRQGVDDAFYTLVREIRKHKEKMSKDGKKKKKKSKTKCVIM
# measurement-description: HiBit KRAS4B mutant spectrum degradation assay, KRAS4B G13D in GP5d cells (18 h)
# Format: cell-based
# assay-conditions: KRAS mutation G13D
Write the answer as a number in nM, unit excluded.

INSERT INTO results (compound, experimental_readout, quantity_unit, observed_result) VALUES
  ('Cc1ncsc1-c1ccc([C@@H](NC(=O)[C@@H]2C[C@@H](O)CN2C(=O)[C@H](C(C)C)n2cc(OCCCN3CCCN(c4nccc(-c5noc([C@@]6(C)CCCc7sc(N)c(C#N)c76)n5)n4)[C@@H](C)C3)nn2)[C@H](O)C(C)C)cc1 (single isomer, unassigned) [I-43]', 'DC50', 'nM', 1.1),
  ('Cc1ncsc1-c1ccc([C@H](CO)NC(=O)[C@@H]2C[C@@H](O)CN2C(=O)[C@H](C(C)C)n2cc(OCCCCN3CCCN(c4nccc(-c5noc([C@@]6(C)CCCc7sc(N)c(C#N)c76)n5)n4)[C@@H](C)C3)nn2)cc1 [I-29]', 'DC50', 'nM', 1.2),
  ('Cc1ncsc1-c1ccc(CNC(=O)[C@@H]2C[C@@H](O)CN2C(=O)[C@@H](NC(=O)CCCCCN2CCCN(c3nccc(-c4noc([C@@]5(C)CCCc6sc(N)c(C#N)c65)n4)n3)[C@@H](C)C2)C(C)(C)C)cc1 [I-47]', 'DC50', 'nM', 44.9);

Entry Cc1ncsc1-c1ccc(CNC(=O)[C@@H]2C[C@@H](O)CN2C(=O)[C@@H](c2cc(OCCCCN3CCCN(c4nccc(-c5noc([C@@]6(C)CCCc7sc(N)c(C#N)c76)n5)n4)[C@@H](C)C3)no2)C(C)C)cc1 (single isomer, unassigned) [I-27] ; DC50 = 1.6

###

Dmax 18 h reference
# target: KRAS(G12D) (Homo sapiens, UniProt P01116, G12D)
# Construct: introduced immediately downstream of the initiating Methionine codon of the endogenous KRAS locus; host or cells: GP5d-HiBit-KRAS(G12D), a CRISPR knock-in at the endogenous locus
# measurement-description: HiBit degradation assay in GP5d-HiBit-KRAS(G12D) cells (18 h; DC50, Dmax)
# Format: cell-based
Just the number in % Ctrl, nothing appended.

According to the records, this compound Cc1ncsc1-c1ccc(CNC(=O)[C@@H]2C[C@@H](O)CN2C(=O)[C@@H](c2cc(OCCCN3CCCN(c4nccc(-c5noc([C@@]6(C)CCCc7sc(N)c(C#N)c76)n5)n4)[C@@H](C)C3)no2)C(C)C)cc1 (single isomer, unassigned) displays Dmax 18 h of 94

// Dmax 18 h value for Cc1ncsc1-c1ccc(CNC(=O)[C@@H]2C[C@@H](O)CN2C(=O)C(c2cc(OCCN3CCCN(c4nccc(-c5noc([C@@]6(C)CCCc7sc(N)c(C#N)c76)n5)n4)[C@@H](C)C3)no2)C(C)C)cc1 (stereo partly drawn) : 84

The compound listed as Cc1ncsc1-c1ccc(CNC(=O)[C@@H]2C[C@@H](O)CN2C(=O)C(c2cc(OCCCCN3CCCN(c4ccnc(-c5noc([C@@]6(C)CCCc7sc(N)c(C#N)c76)n5)n4)[C@@H](C)C3)no2)C(C)C)cc1 (stereo partly drawn) shows Dmax 18 h equal to 92

###

# Test system: SW620 cells
# measurement-description: SW620 cell proliferation assay (colorectal cancer, G12V), 5 days
# Assay type: cell-based
# assay-conditions: Homo sapiens, SW-620, 120 h
pIC50 for assorted molecules
pIC50 (log units): -log10 of the concentration in mol/L.

Some entries whose results are on file:
INSERT INTO measurements (molecule, experimental_readout, observed_result) VALUES
  ('Cc1ncsc1-c1ccc(CNC(=O)[C@@H]2C[C@@H](O)CN2C(=O)[C@@H](NC(=O)COCCCN2CCCN(c3nccc(-c4noc([C@@]5(C)CCCc6sc(N)c(C#N)c65)n4)n3)[C@@H](C)C2)C(C)(C)C)cc1 [I-48]', 'pIC50', 6.10),
  ('Cc1ncsc1-c1ccc([C@H](CO)NC(=O)[C@@H]2C[C@@H](O)CN2C(=O)[C@H](C(C)C)n2cc(OCCCC(C)N3CCCN(c4nccc(-c5noc([C@@]6(C)CCCc7sc(N)c(C#N)c76)n5)n4)[C@@H](C)C3)nn2)cc1 (stereo partly shown) [I-30]', 'pIC50', 7.74),
  ('Cc1ncsc1-c1ccc(CNC(=O)[C@@H]2C[C@@H](O)CN2C(=O)[C@H](c2cc(OCCCCN3CCCN(c4nccc(-c5noc([C@@]6(C)CCCc7sc(N)c(C#N)c76)n5)n4)[C@@H](C)C3)no2)C(C)C)cc1 (single isomer, unassigned) [I-26]', 'pIC50', 6.58);

The molecule Cc1ncsc1-c1ccc([C@H](C)NC(=O)[C@@H]2C[C@@H](O)CN2C(=O)C(C(C)C)n2cc(OCCCCN3CCCN(c4nccc(-c5noc([C@@]6(C)CCCc7sc(N)c(C#N)c76)n5)n4)[C@@H](C)C3)nn2)cc1 (stereo partly shown) [I-28] showed pIC50 equal to 7.88

Where these numbers come from: patent US20250145608A1
